All figures here come from patent US11440907B1.

Tested on: XBP1(u)-luciferase splicing reporter in HepG2 hepatoma cells
method-summary: HepG2 XBP1 reporter assay (XBP1(u)-Luc)
Type: cell-based
applied-conditions: Homo sapiens, 6 h, six hours after addition of compound
endpoint-name: IC50

# example entries with known answers
[[record]]
compound = "Cc1cc(N2CCCOCC2c2cnc(CS(C)(=O)=O)nc2O)nc(N)n1 [D-172]"
data_value = "≥ 5 µM"

[[record]]
compound = "Cc1cc(N2CCCOC[C@@H]2c2cnc(CS(C)(=O)=O)cc2Cl)nc(N)n1 [D-166]"
data_value = "≥ 5 µM"

[[record]]
compound = "Cc1cc(N2CCCOCC2c2cc(O)c(S(C)(=O)=O)cc2Cl)nc(N)n1 [D-79]"
data_value = "0.6 to 2 µM"

[[record]]
compound = "Cc1cc(N2CCCOC[C@H]2c2cc(CN)c(C)cc2Cl)nc(N)n1 [D-164]"
data_value = "≥ 5 µM"

[[record]]
compound = "Cc1cc(N2CCCOCC2c2ccc(CS(C)(=O)=O)cc2Cl)nc(N)n1 [D-55]"
data_value = "< 0.6 µM"


Proceed to the following item.
Report IC50 for Cc1cc(N2CCCOC[C@H]2c2cc(O)c(C(=O)N(C)C)cc2Cl)nc(N)n1 [D-183] please.
≥ 5 µM
